Test system: ryegrass, Italian (Italian ryegrass, Lolium multiflorum)
Experiment: Test A greenhouse herbicide test, pre- and postemergence
Format: in vivo
Conditions: Postemergence, 125 g ai/ha; 0 to 100 scale where 0 is no effect and 100 is complete control
property-label: Plant response rating, Ryegrass, Italian
Response field accepts a number only; no unit should be typed.

Worked examples, 4 compounds total:
Cc1ccc2ccccc2c1-c1c(O)c(C)nn(C)c1=O :: 100
Cc1cc(C)c2sc(C)c(-c3c(OC(=O)OCCCl)c(C)nn(C)c3=O)c2c1 :: 90
CC(=O)Oc1c(C)nn(C)c(=O)c1-c1ccc(F)c2ccccc12 :: 100
CCOC(=O)Oc1c(C)nn(C)c(=O)c1-c1c(C)sc2ccc(C)cc12 :: 70

Reported Plant response rating, Ryegrass, Italian, compound "CCOC(=O)Oc1c(C)nn(C)c(=O)c1-c1c(CC)ccc2ccccc12" : ____
90

###

Tested on: wheat (Triticum aestivum)
Experiment: Test A greenhouse herbicide test, pre- and postemergence
Type: in vivo
Settings: Postemergence, 125 g ai/ha; 0 to 100 scale where 0 is no effect and 100 is complete control
property-label: Plant response rating, Wheat

COc1nn(C)c(=O)c(-c2c(C)sc3ccc(Cl)cc23)c1OS(C)(=O)=O :: 0

Reported Plant response rating, Wheat for wheat (Triticum aestivum), given "Cc1cc(C)c2sc(C)c(-c3c(OC(=O)C(C)(C)C)c(C)nn(C)c3=O)c2c1" ?
0

Reported Plant response rating, Wheat for wheat (Triticum aestivum), given "CC(=O)Oc1c(C)nn(C)c(=O)c1-c1c(C(F)(F)F)ccc2ccccc12" ?
20

Reported Plant response rating, Wheat for wheat (Triticum aestivum), given "CC(=O)Oc1c(C)nn(C)c(=O)c1-c1c(C)sc2ccc(C)cc12" ?
0

###

System: pigweed (Amaranthus retroflexus)
Assay: Test C greenhouse herbicide test, pre- and postemergence
Format: in vivo
Conditions: Postemergence, 250 g ai/ha; scale 0 to 100, 0 no effect, 100 complete control; 13 to 15 d
From the text: […]
Plant response rating, Pigweed values, listed per item
Response field accepts a number only; no unit should be typed.

Worked examples, 2 compounds total:
Cc1cc(C)c2ccccc2c1-c1c(O)cnn(C)c1=O :: 85
Cc1nn(C)c(=O)c(-c2c(C)sc3ccc(Cl)cc23)c1O :: 100

Now for a further compound.
Reported Plant response rating, Pigweed, compound "CC(=O)Oc1c(C)nn(C)c(=O)c1-c1c(C)oc2c(C)cc(C)cc12" : ____
50

###

Test system: ryegrass, Italian (Italian ryegrass, Lolium multiflorum)
Assay: Test D controlled growth environment herbicide test, pre- and postemergence
Format: in vivo
Conditions: Preemergence, 31 g ai/ha
Plant response rating (scale of 0 to 100), Ryegrass, Italian values, listed per item
Response field accepts a number only; no unit should be typed.

Worked examples, 3 compounds total:
CC(=O)Oc1c(C)nn(C)c(=O)c1-c1c(C)sc2c(C)cc(C)cc12 [Compound 27] :: 90
Cc1cc(C)c2sc(C)c(-c3c(OC(=O)OC(C)C)c(C)nn(C)c3=O)c2c1 [Compound 67] :: 75
Cc1ccc2ccccc2c1-c1c(O)c(C)nn(C)c1=O [Compound 59] :: 100

Now for a further compound.
Reported Plant response rating (scale of 0 to 100), Ryegrass, Italian, compound COC(=O)Oc1c(C)nn(C)c(=O)c1-c1c(C)sc2c(C)cc(C)cc12 [Compound 81] : ____
55

###

Tested on: pigweed (Amaranthus retroflexus)
Assay: Test A greenhouse herbicide test, pre- and postemergence
Format: in vivo
Details: Postemergence, 125 g ai/ha; 0 to 100 scale where 0 is no effect and 100 is complete control
Plant response rating, Pigweed values, listed per item
Response field accepts a number only; no unit should be typed.

Worked examples, 5 compounds total:
Cc1cc(C)c2sc(C)c(-c3c(OC(=O)OC(C)C)c(C)nn(C)c3=O)c2c1 :: 20
CCc1nn(C)c(=O)c(-c2c(C)oc3ccccc23)c1O :: 0
CCOC(=O)Oc1c(C)nn(C)c(=O)c1-c1c(C)sc2ccc(C)cc12 :: 60
COc1nn(C)c(=O)c(-c2c(C)sc3ccc(Cl)cc23)c1O :: 80
COc1nn(C)c(=O)c(-c2c(C)ccc3ccccc23)c1O :: 90

Reported Plant response rating, Pigweed, compound "Cc1cc(C)c2ccccc2c1-c1c(O)cnn(C)c1=O" : ____
70

Reported Plant response rating, Pigweed, compound "CCC(=O)Oc1c(C)nn(C)c(=O)c1-c1c(C)sc2ccc(C)cc12" : ____
90

###

System: nutsedge, yellow (yellow nutsedge, Cyperus esculentus)
Assay: Test C greenhouse herbicide test, pre- and postemergence
Format: in vivo
Conditions: Postemergence, 250 g ai/ha; scale 0 to 100, 0 no effect, 100 complete control; 13 to 15 d
Plant response rating, Nutsedge, Yellow values, listed per item
Response field accepts a number only; no unit should be typed.

Worked examples, 2 compounds total:
CCC(=O)Oc1c(C)nn(C)c(=O)c1-c1c(C)sc2ccc(Cl)cc12 :: 80
COc1nn(C)c(=O)c(-c2c(C)ccc3ccccc23)c1OC(C)=O :: 80

Reported Plant response rating, Nutsedge, Yellow, compound "CCCC(=O)Oc1c(C)nn(C)c(=O)c1-c1c(C)sc2c(C)cc(C)cc12" : ____
80

###

Plant response rating, Kochia values, listed per item
Tested on: kochia (Kochia scoparia)
Assay: Test C greenhouse herbicide test, postemergence
Format: in vivo
Details: Postemergence, 250 g ai/ha; scale 0 to 100, 0 no effect, 100 complete control; 13 to 15 d
Response field accepts a number only; no unit should be typed.

Worked examples, 4 molecules total:
Cc1cc(C)c2ccccc2c1-c1c(OS(C)(=O)=O)c(C)nn(C)c1=O :: 80
CC(=O)Oc1c(C#N)nn(C)c(=O)c1-c1c(C)ccc2ccccc12 :: 80
Cc1cc(C)c2ccccc2c1-c1c(O)cnn(C)c1=O :: 75
Cc1cc(C)c2sc(C)c(-c3c(OC(=O)OCCCl)c(C)nn(C)c3=O)c2c1 :: 70

Now for a further molecule.
Reported Plant response rating, Kochia, molecule "Cc1nn(C)c(=O)c(-c2cc(F)cc3ccccc23)c1OS(C)(=O)=O" : ____
90

###

Test system: lambsquarters (Chenopodium album)
Test: Test C greenhouse herbicide test, pre- and postemergence
Type: in vivo
Conditions: postemergence, 62 g ai/ha; scale 0 to 100, 0 no effect, 100 complete control
Lambsquarters plant response rating values, listed per item
Response field accepts a number only; no unit should be typed.

COC(=O)Oc1c(C)nn(C)c(=O)c1-c1c(C)sc2c(C)cc(C)cc12 :: 95
Cc1ccc(-c2c(O)c(Br)nn(C)c2=O)c2ccccc12 :: 60

Reported Lambsquarters plant response rating, compound "COc1nn(C)c(=O)c(-c2c(C)sc3ccc(Cl)cc23)c1O" : ____
90
